assaySystem: tumor necrosis factor alpha (TNFα) (human, UniProt P01375 77-233)
Sequence (P01375 77-233 limits assumed): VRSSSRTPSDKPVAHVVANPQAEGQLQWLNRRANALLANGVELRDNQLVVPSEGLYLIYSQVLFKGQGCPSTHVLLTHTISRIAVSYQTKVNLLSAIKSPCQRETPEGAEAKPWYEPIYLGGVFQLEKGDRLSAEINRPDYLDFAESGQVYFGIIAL
assayRemarks: affinity by IC50 ELISA (so named in paragraph 380)
Sorting guide: entries reporting Affinity beneath 0.3 nM go in the TRUE pile, the rest go in the FALSE pile.

- binder: "MAb 1850 (antibody, V domains shown, IgG1/kappa, CHO; also called H1727/L332) VH: EVQLLESGGGLIQPGGSLRLSCAASGFTVGNNYMSWVRQAPGKGLEWVSVIYSAGSTYYADSVKGRFIISRDNSKDTVYLQMNSLRVDDTAVYYCARNYYGSTHDYWGQGTLVTVSS VL: EIVLTQSPVTLSVPPGERASLSCRASQNIYTAVAWYQQKPGQAPRLLIYGASTRATGIPARFSGGGSGTDYTLTISSLESEDFAVYHCQQWHSWPLTFGGGTKLEIK"
  labelValue: "FALSE"

For MAb 1132 (antibody, V domains shown, IgG1/kappa, CHO; also called H1518/L250) VH: EVQLLESGGGLIQPGGSLRLSCAASGFTVSSNYMSWVRQAPGKGLEWVSVIYSGGRTYYADSVKGRFTISRDSSKNTLYLQMNSLRAEDTAVYYCARNYYGSTHDYWGQGTLVTVSS VL: EIVLTQSPVTLSVPPGERASLSCRASQNIYTAVAWYQQKPGQAPRLLIYGASTRATGIPARFSGGGSGTDYTLTISSLESEDFAVYHCQQYHSWPLTFGGGTKLEIK , is the recorded Affinity below the cut-off of 0.3 nM?
TRUE

For MAb 1999 (antibody, V domains shown, IgG1/kappa, CHO; also called H1824/L459) VH: EVQLVESGGGLIQPGGSLRLSCAVSGLNVSRDYMSWVRQAPGKGLEWISVIYRGGITMYADSVKGRFTISRDTSKNTVFLQMSRLKVADTAVYYCARNYYGSTLDYWGQGTLVTVSS VL: EIVLTQSPVTLSVPPGERASLSCRASQNIYTAVAWYQQKPGQAPRLLIYNASTRATGIPARFSGGGSGTDYTLTISSLESEDFAVYHCQQWHSWPLTFGGGTKLEIK , is the recorded Affinity below the cut-off of 0.3 nM?
TRUE

For MAb 812 (antibody, V domains shown, IgG1/kappa, CHO; also called H1192/L308) VH: EVQLLESGGGLIQPGGSLRLSCAASGFTVSSNYMSWVRQAPGKGLEWVSVIYSGGRTYYADSVKGRFTISRDSSKNTLYLQMNSLRAEDTAVYYCARNYYGSTYDYWGQGTLVTVSS VL: EIVLTQSPVTLSVPPGERASLSCRASQNIYTAVAWYQQKPGQAPRLLIYGASTRATGIPARFSGGGSGTDYTLTISSLESEDFAVYHCQQYFSWPLTFGGGTKLEIK , is the recorded Affinity below the cut-off of 0.3 nM?
FALSE

For MAb 1037 (antibody, V domains shown, IgG1/kappa, CHO; also called H1482/L250) VH: EVQLLESGGGLIQPGGSLRLSCAASGFTVSSNYMSWVRQAPGKGLEWVSVIYSGGRTYYADSVKGRFTISRDSSKNTLYLQMNSLRAEDTAVYYCARNYYGSTFDYWGQGTLVTVSS VL: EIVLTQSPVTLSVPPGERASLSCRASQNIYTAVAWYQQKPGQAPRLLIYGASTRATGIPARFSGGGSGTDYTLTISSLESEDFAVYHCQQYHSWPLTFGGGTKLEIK , is the recorded Affinity below the cut-off of 0.3 nM?
TRUE
